- assay.text: Microsomal stability, human liver microsomes
- Assay type: in vitro ADME
- details: human liver microsomes 0.5 mg protein/mL, 1 μM test compound, NADPH, 37° C., 60 min; read-out: HLM Clint
attribute.measured: microsomal CLint at 1 μM

Please state, for each entry, its recorded microsomal CLint at 1 μM.
1. CCn1nccc1C(=O)N[C@H](C(=O)Nc1ccc([C@H](C)[C@@H](NC(C)=O)C(=O)N2CCN(C)[C@H](C)C2)cc1F)[C@H]1CC[C@H](C)CC1 [C, reference compound]
2. CCn1nccc1C(=O)N[C@H](C(=O)Nc1ccc([C@H](C)[C@@H](NC(=O)COC)C(=O)N2CCN(C)C(CF)C2)cc1F)C(C1CC1)C1CC1 (single isomer, unassigned) [Compound 298]
3. CCC(=O)N[C@@H](C(=O)N1C[C@@H](C)N(C)[C@@H](C)C1)[C@@H](C)c1ccc(NC(=O)[C@@H](NC(=O)c2ccnn2CC)C(C2CC2)C2CC2)c(F)c1 [Compound 223]
4. CCC(=O)N[C@@H](C(=O)N1CCN(C)[C@H](C)C1)[C@@H](C)c1ccc(NC(=O)[C@@H](NC(=O)c2ccnn2CCF)C(C2CC2)C2CC2)c(F)c1 [Compound 217]
5. CCC(=O)N[C@@H](C(=O)N1CCN(C)CC1)[C@@H](C)c1ccc(NC(=O)[C@@H](NC(=O)c2ccnn2C(C)C)C(C2CC2)C2CC2)c(F)c1 [Compound 257]

[reply]
1: > 150 µL/min/mg; 2: < 50 µL/min/mg; 3: 50 to 150 µL/min/mg; 4: < 50 µL/min/mg; 5: 50 to 150 µL/min/mg

###

- assay.text: Rat pharmacokinetics, PO
- Type: in vivo
- details: male rat, PO 5 mg/kg oral gavage, plasma, Linear/log trapezoidal; read-out: Rat PO AUC0-t
attribute.measured: AUC(0-t)

Please review the entries below; each comes with its answer.
CCC(=O)N[C@@H](C(=O)N1CCN(C)[C@H](C)C1)[C@@H](C)c1ccc(NC(=O)[C@@H](NC(=O)c2ccnn2CC(F)F)C(C2CC2)C2CC2)c(F)c1 [Compound 232] :: < 500 ng·h/mL
CCn1nccc1C(=O)N[C@H](C(=O)Nc1ccc([C@H](C)[C@@H](NC(=O)COC)C(=O)N2CCN(C)[C@@H](CF)C2)cc1F)[C@H]1CC[C@H](C)CC1 [B, reference compound] :: < 500 ng·h/mL
CCC(=O)N[C@@H](C(=O)N1CCN(C)[C@H](C)C1)[C@@H](C)c1ccc(NC(=O)[C@@H](NC(=O)c2ccnn2CCF)C(C2CC2)C2CC2)c(F)c1 [Compound 217] :: < 500 ng·h/mL
CCn1nccc1C(=O)N[C@H](C(=O)Nc1ccc([C@H](C)[C@@H](NC(=O)COC)C(=O)N2CCN(C)[C@H](C)C2)cc1F)C(C1CC1)C1CC1 [Compound 207] :: > 1000 ng·h/mL

# next compound below
AUC(0-t) measured on CCC(=O)N[C@@H](C(=O)N1C[C@@H](C)N(C)[C@@H](C)C1)[C@@H](C)c1ccc(NC(=O)[C@@H](NC(=O)c2ccnn2CC)C(C2CC2)C2CC2)c(F)c1 [Compound 223] = < 500 ng·h/mL

###

Please provide measured IC50 for the entries that follow.
- assayed.system: IL-17A/A (Homo sapiens)
- Sequence (Q16552 24-155): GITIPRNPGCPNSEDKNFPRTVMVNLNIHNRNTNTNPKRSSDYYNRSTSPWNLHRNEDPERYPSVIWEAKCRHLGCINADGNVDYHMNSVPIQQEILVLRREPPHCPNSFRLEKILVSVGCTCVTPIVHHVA
- assay.text: IL-17A/A HEK-Blue Cell Assay
- Type: cell-based
- details: HEK-Blue IL-17 reporter cells, IL-17A/A stimulation, 20 hours, SEAP readout; read-out: IL17 AA HEK-5 pIC50 (converted)

Below, each entry is followed by its recorded IC50 result.
CO[C@@H](C)C(=O)N[C@@H](C(=O)N1CCN(C)[C@H](C)C1)[C@@H](C)c1ccc(NC(=O)[C@@H](NC(=O)C2(F)CC2)C(C2CC2)C2CC2)c(F)c1 :: < 10 nM
CO[C@@H](C)C(=O)N[C@@H](C(=O)N1CCN(C)CC1)[C@@H](C)c1ccc(NC(=O)[C@@H](NC(=O)C2(F)CC2)C(C2CC2)C2CC2)c(F)c1 :: 10 to 100 nM
CO[C@@H](C)C(=O)N[C@@H](C(=O)N1C[C@H]2CC[C@@H](C1)N2C)[C@@H](C)c1ccc(NC(=O)[C@@H](NC(=O)C2(F)CC2)C(C2CC2)C2CC2)c(F)c1 :: 10 to 100 nM
CCC(=O)N[C@@H](C(=O)N1CCN(C)CC1)[C@@H](C)c1ccc(NC(=O)[C@@H](NC(=O)c2ccnn2CCO)C(C2CC2)C2CC2)c(F)c1 :: 100 to 10000 nM
CCn1nccc1C(=O)N[C@H](C(=O)Nc1ccc([C@H](C)[C@@H](NC(=O)C(C)C2CC2)C(=O)N2CCN(C)[C@H](C)C2)cc1F)C(C1CC1)C1CC1 (single isomer, unassigned) :: < 10 nM
CCC(=O)N[C@@H](C(=O)N1CCN(C)CC1)[C@@H](C)c1ccc(NC(=O)[C@@H](NC(=O)c2ccnn2C2CC2(F)F)C(C2CC2)C2CC2)c(F)c1 (single isomer, unassigned) [Compound 233] :: 10 to 100 nM
CCC(=O)N[C@@H](C(=O)N1CCC[C@H](N)C1)[C@@H](C)c1ccc(NC(=O)[C@@H](NC(=O)c2ccnn2CC)C(C2CC2)C2CC2)c(F)c1 :: 10 to 100 nM
CCn1nccc1C(=O)N[C@H](C(=O)Nc1ccc([C@H](C)[C@@H](NC(=O)CCF)C(=O)N2CCN(C)CC2)cc1F)C(C1CC1)C1CC1 :: 10 to 100 nM
COCC(=O)N[C@@H](C(=O)N1CCN(C)CC1)[C@@H](C)c1ccc(NC(=O)[C@@H](NC(=O)c2ccnn2C(C)C)C(C2CC2)C2CC2)c(F)c1 :: < 10 nM

Read the next record carefully.
Item CCn1nccc1C(=O)N[C@H](C(=O)Nc1ccc(C(C(NC(=O)[C@H](C)OC)C(=O)N2CCN(C)[C@H](C)C2)C(F)(F)F)cc1F)C(C1CC1)C1CC1 (single isomer, unassigned) [Compound 353] was tested on IL-17A/A (Homo sapiens); the reported IC50 is < 10 nM
